Tested on: ATP;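 also: ATP exposure 15 min at 22 °C before imaging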
Assay: switch fluorescence ratio, 500 uM ATP over buffer (Cy3 cluster intensity, sum of 5 cycles each) (fold (ratio)); higher = stronger signal-on switching upon ATP binding; sequences stand for … in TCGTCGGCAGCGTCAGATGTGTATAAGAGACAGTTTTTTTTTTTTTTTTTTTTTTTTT…TC
Conditions: aptamer strand: ATP DNA aptamer (quencher-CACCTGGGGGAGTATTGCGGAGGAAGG + anchor), 100 nM annealed; ATP concentration: 500 uM
Quick rule: switch fluorescence ratio of at least 1 means criterion met, below that means criterion not met.

The examples below pair each entry with its known result.
sequence chain: TGAGTTATGG
measured on: ATP
class: criterion not met
//
sequence chain: CAGGCTGGAC
measured on: ATP
class: criterion met
//
sequence chain: ACCGGCGTTT
measured on: ATP
class: criterion met
//
sequence chain: CGCGGGGATA
measured on: ATP
class: criterion met
//
sequence chain: GGGGAAACAT
measured on: ATP
class: criterion met
//
sequence chain: CCGGGGGGGG
measured on: ATP
class: criterion met

stdin: // inclusive: switch fluorescence ratio at least 1? input: `AAAGGTGCAC`
stdout: criterion not met

stdin: Does the reported switch fluorescence ratio for `TGGGGATAAC` fall at or above the 1 mark?
stdout: criterion not met

stdin: Please indicate if the recorded switch fluorescence ratio for `CCGGTGCCAA` meets or exceeds 1.
stdout: criterion met

stdin: Does `ACGAGCCTAG` have a reported switch fluorescence ratio of at least 1?
stdout: criterion met

====

Tested on: ATP;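 also: ATP exposure 15 min at 22 °C before imaging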
Assay: switch fluorescence ratio, 500 uM ATP over buffer (Cy3 cluster intensity, sum of 5 cycles each) (fold (ratio)); higher = stronger signal-on switching upon ATP binding; sequences stand for … in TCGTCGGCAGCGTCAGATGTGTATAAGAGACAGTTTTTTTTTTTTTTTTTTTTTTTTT…TC
Details: aptamer strand: ATP DNA aptamer (quencher-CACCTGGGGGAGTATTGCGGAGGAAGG + anchor), 100 nM annealed; ATP concentration: 500 uM
quantity: switch fluorescence ratio
Note: the reply should be a number with no unit written.

sequence chain: CGGGTTTTTC
switch fluorescence ratio: 0.972
//
sequence chain: AGGGTGGGCT
switch fluorescence ratio: 0.996
//
sequence chain: TACTTGTCGG
switch fluorescence ratio: 0.985
//
sequence chain: AGGGGCAGTT
switch fluorescence ratio: 0.985
//
sequence chain: TTATTTCGAA
switch fluorescence ratio: 1.01

Moving on to the next sequence.
stdin: Given the sequence `TCTGTGCAGG` , write its reported switch fluorescence ratio.
stdout: 1

====

Test system: ATP;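 also: ATP exposure 15 min at 22 °C before imaging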
Experiment: switch fluorescence ratio, 500 uM ATP over buffer (Cy3 cluster intensity, sum of 5 cycles each) (fold (ratio)); higher = stronger signal-on switching upon ATP binding; sequences stand for … in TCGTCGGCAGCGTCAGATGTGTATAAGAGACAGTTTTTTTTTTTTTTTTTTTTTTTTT…TC
Details: aptamer strand: ATP DNA aptamer (quencher-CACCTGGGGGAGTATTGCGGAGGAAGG + anchor), 100 nM annealed; ATP concentration: 500 uM
We begin with a simple list: items and their reported switch fluorescence ratio.
Reply: number alone, nothing else.

Some entries whose results are on file:
sequence chain: CAAATAAGTA
measured on: ATP
switch fluorescence ratio: 1.01
--
sequence chain: AGTCCTTTTT
measured on: ATP
switch fluorescence ratio: 0.979
--
sequence chain: TTGGTGATGA
measured on: ATP
switch fluorescence ratio: 1.02
--
sequence chain: GGGGTTGGTT
measured on: ATP
switch fluorescence ratio: 0.995
--
sequence chain: TCATCTTGTC
measured on: ATP
switch fluorescence ratio: 1.01

stdin: Return the recorded switch fluorescence ratio value; entry: `AGGGAGGACT`
stdout: 1.02

stdin: Give the measured switch fluorescence ratio for `TAAATTTGTA`
stdout: 0.99

stdin: Answer with the recorded switch fluorescence ratio of `TCGTGTGTTC` only.
stdout: 1.02
